- Test system: MDA-MB-436 (Breast Carcinoma)
- measurement_description: combination Emax (second highest fraction inhibited in the dose matrix, 72 h); higher = more inhibition; extreme values may be limits of the assay
combination Emax values for the compounds below.
test_readout: combination Emax

{"compound": "Cc1c2c(nn1C)CSCc1cc(n(C)n1)CSc1cc(c3ccccc3c1)OCCCc1c(C(=O)O)n(C)c3c-2c(Cl)ccc13 [AZD5991] + Cc1cc2ncnn2cc1Nc1ncc2c(n1)n(C1CCOCC1)c(=O)n2C [AZD7648] (first compound max 1 µM, 7x7, partner max 10 µM)", "test_readout": "combination Emax", "observed_measurement": 0.226}
{"compound": "CS(=O)(=O)CCNCc1ccc(-c2ccc3ncnc(Nc4ccc(OCc5cccc(F)c5)c(Cl)c4)c3c2)o1 [Lapatinib] + Cn1cnc2c(F)c(Nc3ccc(Br)cc3Cl)c(C(=O)NOCCO)cc21 [Selumetinib] (first compound max 10 µM, 7x7, partner max 10 µM)", "test_readout": "combination Emax", "observed_measurement": 0.352}
{"compound": "CN(C)CCCOc1ccc(-c2ccc3ncc4c(c3c2)n(C2CCOCC2)c(=O)n4C)cn1 [AZD0156] + CCN(CCO)CCCOc1ccc2c(Nc3cc(CC(=O)Nc4cccc(F)c4)[nH]n3)ncnc2c1 [AZD2811] (first compound max 1 µM, 7x7, partner max 1 µM)", "test_readout": "combination Emax", "observed_measurement": 0.0531}
{"compound": "CN(CCO)CC[C@H](CSc1ccccc1)Nc1ccc(S(=O)(=O)NC(=O)c2ccc(N3CCC([C@@H](O)c4ccccc4-c4ccc(Cl)cc4)CC3)cc2)cc1S(=O)(=O)C(F)(F)F [AZD4320] + Nc1ccn([C@@H]2O[C@H](CO)[C@@H](O)C2(F)F)c(=O)n1 [Gemcitabine] (first compound max 1 µM, 7x7, partner max 0.3 µM)", "test_readout": "combination Emax", "observed_measurement": 0.531}
{"compound": "CC(=O)c1c(C)c2cnc(Nc3ccc(N4CCNCC4)cn3)nc2n(C2CCCC2)c1=O [Palbociclib] + Cn1cnc2c(F)c(Nc3ccc(Br)cc3Cl)c(C(=O)NOCCO)cc21 [Selumetinib] (first compound max 10 µM, 7x7, partner max 10 µM)", "test_readout": "combination Emax", "observed_measurement": 0.224}

###

Bliss excess values for the molecules below.
- System: NCI-H716 (Colorectal Carcinoma);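 further: after 72 h of two-drug dosing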
- measurement_description: Bliss excess, mean over the matrix (fraction); higher = more synergy

{"molecule": "COc1nnc2ccc(N3CCC(c4ccc(OCCN5CCN(C)C(=O)[C@H]5C)cc4)CC3)nn12 [AZD5153] + CN(CC[C@H](CSC1=CC=CC=C1)NC2=C(C=C(C=C2)S(=O)(=O)NC(=O)C3=CC=C(C=C3)N4CCC(CC4)[C@H](C5=CC=CC=C5C6=CC=C(C=C6)Cl)O)S(=O)(=O)C(F)(F)F)CCO [AZD4320] (first compound max 1 µM, 7x7, partner max 1 µM)", "Bliss excess": -0.0394}
{"molecule": "CC(=O)c1c(C)c2cnc(Nc3ccc(N4CCNCC4)cn3)nc2n(C2CCCC2)c1=O [Palbociclib] + Cc1c2c(nn1C)CSCc1cc(n(C)n1)CSc1cc(c3ccccc3c1)OCCCc1c(C(=O)O)n(C)c3c-2c(Cl)ccc13 [AZD5991] (first compound max 10 µM, 7x7, partner max 1 µM)", "Bliss excess": -0.0343}
{"molecule": "COc1cccc(OCCCN)c1-c1cc(Nc2cnc(C#N)cn2)n[nH]1 [Prexasertib] + O=C(c1cc(Cc2n[nH]c(=O)c3ccccc23)ccc1F)N1CCN(C(=O)C2CC2)CC1 [Olaparib] (first compound max 1 µM, 7x7, partner max 10 µM)", "Bliss excess": -0.0673}
{"molecule": "C=CCn1c(=O)c2cnc(Nc3ccc(N4CCN(C)CC4)cc3)nc2n1-c1cccc(C(C)(C)O)n1 [AZD1775] + C[C@@H]1COCCN1C2=NC(=NC(=C2)C3(CC3)[S@](=N)(=O)C)C4=C5C=CNC5=NC=C4 [AZD6738] (first compound max 1 µM, partner max 10 µM)", "Bliss excess": -0.0004}
{"molecule": "COc1nnc2ccc(N3CCC(c4ccc(OCCN5CCN(C)C(=O)[C@H]5C)cc4)CC3)nn12 [AZD5153] + C=CCn1c(=O)c2cnc(Nc3ccc(N4CCN(C)CC4)cc3)nc2n1-c1cccc(C(C)(C)O)n1 [AZD1775] (first compound max 1 µM, partner max 1 µM)", "Bliss excess": -0.0734}
{"molecule": "Cc1c2c(nn1C)CSCc1cc(n(C)n1)CSc1cc(c3ccccc3c1)OCCCc1c(C(=O)O)n(C)c3c-2c(Cl)ccc13 [AZD5991] + CC1(C)CCC(CN2CCN(c3ccc(C(=O)NS(=O)(=O)c4ccc(NCC5CCOCC5)c([N+](=O)[O-])c4)c(Oc4cnc5[nH]ccc5c4)c3)CC2)=C(c2ccc(Cl)cc2)C1 [Venetoclax] (first compound max 1 µM, 7x7, partner max 1 µM)", "Bliss excess": -0.0436}
{"molecule": "COc1cccc(OCCCN)c1-c1cc(Nc2cnc(C#N)cn2)n[nH]1 [Prexasertib] + CCc1c2c(nc3ccc(O)cc13)-c1cc3c(c(=O)n1C2)COC(=O)[C@]3(O)CC [SN-38] (first compound max 1 µM, 7x7, partner max 0.3 µM)", "Bliss excess": 0.0825}

###

- Test system: SK-HEP-1 (Hepatocellular Carcinoma)
- measurement_description: combination Emax (second highest fraction inhibited in the dose matrix, 72 h); higher = more inhibition; extreme values may be limits of the assay
combination Emax values for the compounds below.
test_readout: combination Emax

{"compound": "Cc1c2c(nn1C)CSCc1cc(n(C)n1)CSc1cc(c3ccccc3c1)OCCCc1c(C(=O)O)n(C)c3c-2c(Cl)ccc13 [AZD5991] + CC(=O)O[C@H]1C(=O)[C@@]2(C)[C@H]([C@H](OC(=O)c3ccccc3)[C@]3(O)C[C@H](OC(=O)[C@H](O)[C@@H](NC(=O)c4ccccc4)c4ccccc4)C(C)=C1C3(C)C)[C@]1(OC(C)=O)CO[C@@H]1C[C@@H]2O [Paclitaxel] (first compound max 1 µM, 7x7, partner max 3 µM)", "test_readout": "combination Emax", "observed_measurement": 0.857}
{"compound": "Cc1c2c(nn1C)CSCc1cc(n(C)n1)CSc1cc(c3ccccc3c1)OCCCc1c(C(=O)O)n(C)c3c-2c(Cl)ccc13 [AZD5991] + C[C@@H](Nc1cc(F)cc(F)c1)c1cc(C(=O)N(C)C)cc2c(=O)cc(N3CCOCC3)oc12 [AZD8186] (first compound max 1 µM, 7x7, partner max 3 µM)", "test_readout": "combination Emax", "observed_measurement": 0.356}
{"compound": "Cn1cnc2c(F)c(Nc3ccc(Br)cc3Cl)c(C(=O)NOCCO)cc21 [Selumetinib] + C[C@@H]1COCCN1C2=NC(=NC(=C2)C3(CC3)[S@](=N)(=O)C)C4=C5C=CNC5=NC=C4 [AZD6738] (first compound max 10 µM, 7x7, partner max 10 µM)", "test_readout": "combination Emax", "observed_measurement": 0.223}
{"compound": "CC1(C)CCC(CN2CCN(c3ccc(C(=O)NS(=O)(=O)c4ccc(NCC5CCOCC5)c([N+](=O)[O-])c4)c(Oc4cnc5[nH]ccc5c4)c3)CC2)=C(c2ccc(Cl)cc2)C1 [Venetoclax] + COc1cc(Nc2ncc3c(n2)-c2ccc(Cl)cc2C(c2c(F)cccc2OC)=NC3)ccc1C(=O)O [Alisertib] (first compound max 1 µM, 7x7, partner max 10 µM)", "test_readout": "combination Emax", "observed_measurement": 0.349}
{"compound": "Cn1cnc2c(F)c(Nc3ccc(Br)cc3Cl)c(C(=O)NOCCO)cc21 [Selumetinib] + CCN(CCO)CCCOc1ccc2c(Nc3cc(CC(=O)Nc4cccc(F)c4)[nH]n3)ncnc2c1 [AZD2811] (first compound max 10 µM, 7x7, partner max 1 µM)", "test_readout": "combination Emax", "observed_measurement": 0.362}
{"compound": "Cc1cc2ncnn2cc1Nc1ncc2c(n1)n(C1CCOCC1)c(=O)n2C [AZD7648] + COc1cc([C@@H]2c3cc4c(cc3[C@@H](O[C@@H]3O[C@@H]5CO[C@@H](C)O[C@H]5[C@H](O)[C@H]3O)[C@H]3COC(=O)[C@H]23)OCO4)cc(OC)c1O [Etoposide] (first compound max 10 µM, 7x7, partner max 10 µM)", "test_readout": "combination Emax", "observed_measurement": 0.653}
{"compound": "Cc1c2c(nn1C)CSCc1cc(n(C)n1)CSc1cc(c3ccccc3c1)OCCCc1c(C(=O)O)n(C)c3c-2c(Cl)ccc13 [AZD5991] + CN(C)CCCOc1ccc(-c2ccc3ncc4c(c3c2)n(C2CCOCC2)c(=O)n4C)cn1 [AZD0156] (first compound max 1 µM, 7x7, partner max 1 µM)", "test_readout": "combination Emax", "observed_measurement": 0.281}
{"compound": "CCN(CCO)CCCOc1ccc2c(Nc3cc(CC(=O)Nc4cccc(F)c4)[nH]n3)ncnc2c1 [AZD2811] + C=CCn1c(=O)c2cnc(Nc3ccc(N4CCN(C)CC4)cc3)nc2n1-c1cccc(C(C)(C)O)n1 [AZD1775] (first compound max 1 µM, partner max 1 µM)", "test_readout": "combination Emax", "observed_measurement": 0.355}
{"compound": "CC1(C)CCC(CN2CCN(c3ccc(C(=O)NS(=O)(=O)c4ccc(NCC5CCOCC5)c([N+](=O)[O-])c4)c(Oc4cnc5[nH]ccc5c4)c3)CC2)=C(c2ccc(Cl)cc2)C1 [Venetoclax] + C=CCn1c(=O)c2cnc(Nc3ccc(N4CCN(C)CC4)cc3)nc2n1-c1cccc(C(C)(C)O)n1 [AZD1775] (first compound max 1 µM, partner max 1 µM)", "test_readout": "combination Emax", "observed_measurement": 0.34}
{"compound": "C[C@@H](Oc1cc(-c2cnn(C3CCNCC3)c2)cnc1N)c1c(Cl)ccc(F)c1Cl [Crizotinib] + CC1=C(C(=CC=C1)Cl)NC(=O)C2=CN=C(S2)NC3=CC(=NC(=N3)C)N4CCN(CC4)CCO [Dasatinib] (first compound max 10 µM, 7x7, partner max 2 µM)", "test_readout": "combination Emax", "observed_measurement": 0.433}
{"compound": "COc1nnc2ccc(N3CCC(c4ccc(OCCN5CCN(C)C(=O)[C@H]5C)cc4)CC3)nn12 [AZD5153] + C=CCn1c(=O)c2cnc(Nc3ccc(N4CCN(C)CC4)cc3)nc2n1-c1cccc(C(C)(C)O)n1 [AZD1775] (first compound max 1 µM, partner max 1 µM)", "test_readout": "combination Emax", "observed_measurement": 0.312}
{"compound": "C=CCn1c(=O)c2cnc(Nc3ccc(N4CCN(C)CC4)cc3)nc2n1-c1cccc(C(C)(C)O)n1 [AZD1775] + Nc1ccn([C@@H]2O[C@H](CO)[C@@H](O)C2(F)F)c(=O)n1 [Gemcitabine] (first compound max 1 µM, partner max 0.3 µM)", "test_readout": "combination Emax", "observed_measurement": 0.514}
{"compound": "CN(CCO)CC[C@H](CSc1ccccc1)Nc1ccc(S(=O)(=O)NC(=O)c2ccc(N3CCC([C@@H](O)c4ccccc4-c4ccc(Cl)cc4)CC3)cc2)cc1S(=O)(=O)C(F)(F)F [AZD4320] + CCN(CCO)CCCOc1ccc2c(Nc3cc(CC(=O)Nc4cccc(F)c4)[nH]n3)ncnc2c1 [AZD2811] (first compound max 1 µM, 7x7, partner max 1 µM)", "test_readout": "combination Emax", "observed_measurement": 0.793}
